Taken from ChEMBL document CHEMBL1136815.

Test: In vitro inhibition of recombinant Mycobacterium smegmatis N-Acetyltransferase (MSNAT) -catalyzed acetylation of isoniazid (INH).
Set-up: species or system Mycolicibacterium smegmatis
Measured Quantity: IC50 (µM)
Return type: number; implicit unit µM.

Prompt: What does the data say about its IC50? Entry: O=C1NC(=O)/C(=C2\CN(Cc3ccc4ccccc4c3)S(=O)(=O)c3ccccc32)S1
Response: 78

====

Experiment: In vitro inhibition of recombinant Mycobacterium smegmatis Arylamine N-Acetyltransferase (MSNAT) -catalyzed acetylation of isoniazid (INH)
Design: species or system Mycolicibacterium smegmatis
Kindly supply the reported Ki values for the records listed here.
Please state the value followed by its unit.

Prompt: What does the data say about its Ki? Entry: O=C1NC(=O)/C(=C2\CN(Cc3ccc(/C=C/c4ccccc4)cc3)S(=O)(=O)c3ccccc32)S1
Response: 14 µM

Prompt: Check O=C1NC(=O)/C(=C2\CN(Cc3ccc(Cl)s3)S(=O)(=O)c3ccccc32)S1 too.
Response: 26.7 µM

Prompt: Check CCCCCCCCN1C/C(=C2/SC(=O)NC2=O)c2ccccc2S1(=O)=O too.
Response: 43 µM

Prompt: Check CCCCCCCCCCN1C/C(=C2/SC(=O)NC2=O)c2ccccc2S1(=O)=O too.
Response: 14.7 µM

Prompt: Check O=C1NC(=O)/C(=C2\CN(Cc3ccc(-c4ccccc4)cc3)S(=O)(=O)c3ccccc32)S1 too.
Response: 14.4 µM
